# target-of-assay: chimeric BTLA of humanised-BTLA mice (human extracellular region, murine transmembrane and signaling … (human; mouse, UniProt Q7TSA3 184-306, limits assumed)
# Sequence (Q7TSA3 other isoform, or with tags, fused parts or gaps mutant limits assumed): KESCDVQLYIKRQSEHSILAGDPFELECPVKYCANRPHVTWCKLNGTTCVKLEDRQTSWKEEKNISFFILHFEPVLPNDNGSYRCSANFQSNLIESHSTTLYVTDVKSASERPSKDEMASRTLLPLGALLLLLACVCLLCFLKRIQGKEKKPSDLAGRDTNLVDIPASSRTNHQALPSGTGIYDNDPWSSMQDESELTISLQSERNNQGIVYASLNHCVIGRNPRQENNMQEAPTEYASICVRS
# protocol-text: cell-based or functional assay
outcome-measure: AntiCD3/CD28 (CD4 T cell proliferation) repeat 2, % inhibition (%)
Dear colleague, please return just the value in %, with no unit written.

For orientation, consider the following solved cases.
binder	display-unit	test-result
11.5.1 (antibody, IgG1, V domains shown) VH: EVQLQESGPSLVKPSQTLSLTCSVTGDSITSAYWNWIRKFPGNKLEYMGYISYSGSTYFNPSLKSRISITRNTSKNQYYLQLNSVTTEDTATYYCARSHYYGYYFDYWGHGTTLTVSS VL: DIVLTQSPASLAVSLGQRATISCRASETIDSYGDSLMHWYQQKAGQPPKLLIYRASNLESGIPARFSGSGSRTDFTLTINPVEADDVATYYCQQTDEDPYTFGGGTKLEIK	%	28
14D4 (antibody, IgG1, V domains shown) VH: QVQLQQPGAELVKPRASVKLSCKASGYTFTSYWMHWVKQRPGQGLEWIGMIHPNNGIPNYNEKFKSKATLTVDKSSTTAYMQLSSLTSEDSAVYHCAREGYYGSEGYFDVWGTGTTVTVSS VL: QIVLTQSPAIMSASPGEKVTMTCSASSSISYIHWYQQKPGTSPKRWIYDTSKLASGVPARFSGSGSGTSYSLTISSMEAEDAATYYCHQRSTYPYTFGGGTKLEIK	%	29
4H4 (antibody, IgG1, V domains shown) VH: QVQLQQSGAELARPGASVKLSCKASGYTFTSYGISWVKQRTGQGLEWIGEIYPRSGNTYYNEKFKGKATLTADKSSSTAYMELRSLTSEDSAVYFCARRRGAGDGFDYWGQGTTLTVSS VL: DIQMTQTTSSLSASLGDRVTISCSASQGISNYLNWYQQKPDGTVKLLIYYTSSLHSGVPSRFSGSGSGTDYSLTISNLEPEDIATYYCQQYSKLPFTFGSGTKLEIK	%	22
7A1 (antibody, IgG1, V domains shown) VH: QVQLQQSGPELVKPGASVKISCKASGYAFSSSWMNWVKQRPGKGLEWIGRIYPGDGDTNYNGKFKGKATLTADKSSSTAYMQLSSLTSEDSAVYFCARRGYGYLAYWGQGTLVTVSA VL: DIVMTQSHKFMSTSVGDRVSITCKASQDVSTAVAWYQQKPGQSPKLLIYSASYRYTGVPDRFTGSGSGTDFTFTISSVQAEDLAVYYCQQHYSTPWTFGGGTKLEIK	%	17
831 (antibody, V domains shown) VH: DVQLQESGPDLVKPSQSLSVTCTVTGYSITSGYSWHWIRQFPGNKLEWMGYIHYSGSTNYNPSLKSRISITRDTSKNQFFLQLSSVTTEDTATYYCASGPHRYDGVWFAYWGQGTLVTVSS VL: EIVLTQSPTTMAASPGEKITITCSASSSISSNYLHWYQQKPGFSPKLLIYRTSNLASGVPARFSGSGSGTSYSLTIGTMEAEDVATYYCQQGTNIPLTFGAGTKLEIK	%	8
16H2 (antibody, IgG1, V domains shown) VH: EVQLQQSGPELVQPGASVKISCKASGYTFTDYYMIWVKQSHGKSLEWIGNINPNNGGTTYNQKFKGKATLTVDKSSSTAYMGLPSLTSEDSAVYYCARGGLRPLYFDYWGQGTTLTVSS VL: NIVMTQSPKSMSMSVGERVTLSCKASENVDTYVSWYQQKPEQSPKLLIYGASNRYTGVPDRFTGSGSATDFTLTISSVQAEDLADYHCGQSYSYPLTFGAGTKLELI	%	23
26B1 (antibody, IgG1, V domains shown) VH: EVQLQQSGPVLVKPGASVKMSCKASGYTFTDYYLNWVKQSHGKSLEWIGLIDPYNGGSSCNQKFKGKATLTVDKSSSTAYMDLNSLTSEDSAVYYCARGNAMDYWGQGTSVTVSS VL: DIVMTQSHKFMSTSVGDRVSITCKASQDVSTAVAWYQEKPGQSPKLLIYWASTRHTGVPDRFTGSGSGTDYILNISSVQAEDLALYYCQQHYIIPYMFGGGTKLEIK	%	19
3A9 (antibody, IgG1, V domains shown) VH: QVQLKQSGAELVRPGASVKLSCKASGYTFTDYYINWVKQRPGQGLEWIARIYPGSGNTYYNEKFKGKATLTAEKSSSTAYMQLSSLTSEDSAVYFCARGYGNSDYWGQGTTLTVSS VL: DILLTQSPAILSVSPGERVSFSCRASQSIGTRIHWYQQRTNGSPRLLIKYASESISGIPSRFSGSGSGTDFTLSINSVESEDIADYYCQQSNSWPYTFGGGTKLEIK	%	9
15B6 (antibody, IgG1, V domains shown) VH: QVQLQQPGAELVKPGASVKLSCKASGYTFTSYWMHWVKQRPGQGLEWIGMIHPNSGSTNYNEKFKSKATLTVDKSSSTAYMQLSSLTSEDSAVYYCARKRGGLGDYWGQGTSVTVSS VL: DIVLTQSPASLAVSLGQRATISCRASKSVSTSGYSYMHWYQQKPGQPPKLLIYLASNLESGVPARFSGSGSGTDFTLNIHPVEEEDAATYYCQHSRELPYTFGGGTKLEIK	%	16

Look up AntiCD3/CD28 (CD4 T cell proliferation) repeat 2, % inhibition of 21C7 (antibody, IgG1, V domains shown) VH: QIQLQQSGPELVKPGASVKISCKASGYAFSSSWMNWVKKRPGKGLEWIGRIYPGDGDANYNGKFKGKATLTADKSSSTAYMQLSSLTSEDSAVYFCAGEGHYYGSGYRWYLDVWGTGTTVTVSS VL: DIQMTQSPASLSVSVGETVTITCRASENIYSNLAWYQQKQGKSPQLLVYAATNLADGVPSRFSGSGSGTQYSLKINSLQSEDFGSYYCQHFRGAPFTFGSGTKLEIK and report it.
-4
